assay text: Tmax in mouse at 50 mg/kg, po
Format: ADME, organism-based
condition description: in vivo
Reported Tmax by item:
Please state the figure in h; there is no need to write the unit.

> print(dat)
                    structure.smiles.string  unit.name  readout.number
1  FC(F)(F)c1noc(-c2ccc(CCN3CCC(Nc4nc5ccccc5[nH]4)CC3)cc2)n1          h             1.7

The record that follows has no Tmax shown yet.
For `Cc1noc(-c2ccc(CCN3CCC(Nc4nc5ccccc5[nH]4)CC3)cc2)n1` the compound record lists Tmax as 3

----------
Reported IC50 at 48 h by item:
assay text: Cytotoxicity against CHO cells measured after 48 hrs by MTT assay
condition description: Chinese hamster, CHO cells
Please state the figure in µM; there is no need to write the unit.

> print(dat)
                    structure.smiles.string  measured.metric  readout.number
1  Cc1noc(-c2ccc(CCN3CCC(Nc4nc5ccccc5[nH]4)CC3)cc2)n1     IC50 at 48 h            3.56
2  Cc1noc(-c2ccc(CCN3CCC(Nc4nc5ccccc5n4Cc4ccc(C(F)(F)F)cc4)CC3)cc2)n1     IC50 at 48 h            3.33
3  N#Cc1ccc(Cn2c(NC3CCN(CCc4ccc(-c5noc(C(F)(F)F)n5)cc4)CC3)nc3ccccc32)cc1     IC50 at 48 h            3.85
4  Cc1nc(-c2ccc(CCN3CCC(Nc4nc5ccccc5n4Cc4ccc(C#N)cc4)CC3)cc2)no1     IC50 at 48 h            5.87
5  Cc1noc(-c2ccc(CCN3CCC(Nc4nc5ccccc5n4CC4CCCCC4)CC3)cc2)n1     IC50 at 48 h            44.4
6  N#Cc1ccc(Cn2c(NC3CCN(CCc4ccc(-c5nc(C(F)(F)F)no5)cc4)CC3)nc3ccccc32)cc1     IC50 at 48 h            0.75
7  C[C@H]1COC(c2ccc(CCN3CCC(Nc4nc5ccccc5n4Cc4ccc(C#N)cc4)CC3)cc2)=N1     IC50 at 48 h            38.9
8  Cc1noc(-c2ccc(CCN3CCC(Nc4nc5ccccc5n4C)CC3)cc2)n1     IC50 at 48 h            9.08
9  Cc1noc(-c2ccc(CCN3CCC(Nc4nc5ccccc5n4Cc4ccc(C(F)(F)F)nc4)CC3)cc2)n1     IC50 at 48 h            5.63

For `N#Cc1ccc(Cn2c(NC3CCN(CCc4ccc(-c5ncon5)cc4)CC3)nc3ccccc32)cc1` the molecule record lists IC50 at 48 h as 16.6

----------
assay text: Cmax in mouse at 10 mg/kg, po
Type: ADME, organism-based
Set-up: dose 10 mg/kg, route po
condition description: in vivo
Reported Cmax by item:
Please state the figure in nM; there is no need to write the unit.

> print(dat)
                    structure.smiles.string  unit.name  readout.number
1  FC(F)(F)c1noc(-c2ccc(CCN3CCC(Nc4nc5ccccc5[nH]4)CC3)cc2)n1         nM             300

For `Cc1noc(-c2ccc(CCN3CCC(Nc4nc5ccccc5[nH]4)CC3)cc2)n1` the compound record lists Cmax as 1000

----------
Reported solubility kinetic at 2 h by item:
assay text: physchem
condition description: buffer, pH 7.4
Please state the figure in µM; there is no need to write the unit.

> print(dat)
                    structure.smiles.string  readout.number
1  N#Cc1ccc(Cn2c(NC3CCN(CCc4ccc(-c5ncon5)cc4)CC3)nc3ccccc32)cc1              40
2  Cn1c(NC2CCN(CCc3ccc(C(=O)N4CCNCC4)cc3)CC2)nc2ccccc21             120
3  CSCc1noc(-c2ccc(CCN3CCC(Nc4nc5ccccc5n4C)CC3)cc2)n1              80
4  Cc1noc(-c2ccc(CCN3CCC(Nc4nc5cc(F)ccc5n4C)CC3)cc2)n1              80
5  Cc1noc(-c2ccc(CCN3CCC(Nc4nc5cc(F)c(F)cc5n4C)CC3)cc2)n1              80
6  Cn1c(NC2CCN(CCc3ccc(C(=O)O)cc3)CC2)nc2ccccc21             160

For `Cc1noc(-c2ccc(CCN3CCC(Nc4nc5cc(Br)ccc5n4C)CC3)cc2)n1` the molecule record lists solubility kinetic at 2 h as 80

For `COc1ccc(CCN2CCC(Nc3nc4ccccc4n3Cc3ccc(F)cc3)CC2)cc1` the molecule record lists solubility kinetic at 2 h as 40

----------
assay text: Cytotoxicity against CHO cells measured after 48 hrs by MTT assay
condition description: Chinese hamster, cho
measured metric: IC50 at 48 h

Worked set:
> print(dat)
                    structure.smiles.string   result
1  FC(F)(F)c1noc(-c2ccc(CCN3CCC(Nc4nc5ccccc5[nH]4)CC3)cc2)n1  1.96 µM
2  Cn1c(NC2CCN(CCc3ccc(-c4nc(C(F)(F)F)no4)cc3)CC2)nc2ccccc21  3.18 µM

For `Cn1c(NC2CCN(CCc3ccc(-c4nc(C(C)(C)C)no4)cc3)CC2)nc2ccccc21` the compound record lists IC50 at 48 h as 4.69 µM

For `Cc1noc(-c2ccc(CCN3CCC(Nc4nc5ccccc5n4Cc4ccc(C#N)cc4)CC3)cc2)n1` the compound record lists IC50 at 48 h as 19.7 µM

----------
Reported IC50 by item:
measured target: Voltage-gated inwardly rectifying potassium channel KCNH2 (Homo sapiens)
Sequence (Q12809 whole entry): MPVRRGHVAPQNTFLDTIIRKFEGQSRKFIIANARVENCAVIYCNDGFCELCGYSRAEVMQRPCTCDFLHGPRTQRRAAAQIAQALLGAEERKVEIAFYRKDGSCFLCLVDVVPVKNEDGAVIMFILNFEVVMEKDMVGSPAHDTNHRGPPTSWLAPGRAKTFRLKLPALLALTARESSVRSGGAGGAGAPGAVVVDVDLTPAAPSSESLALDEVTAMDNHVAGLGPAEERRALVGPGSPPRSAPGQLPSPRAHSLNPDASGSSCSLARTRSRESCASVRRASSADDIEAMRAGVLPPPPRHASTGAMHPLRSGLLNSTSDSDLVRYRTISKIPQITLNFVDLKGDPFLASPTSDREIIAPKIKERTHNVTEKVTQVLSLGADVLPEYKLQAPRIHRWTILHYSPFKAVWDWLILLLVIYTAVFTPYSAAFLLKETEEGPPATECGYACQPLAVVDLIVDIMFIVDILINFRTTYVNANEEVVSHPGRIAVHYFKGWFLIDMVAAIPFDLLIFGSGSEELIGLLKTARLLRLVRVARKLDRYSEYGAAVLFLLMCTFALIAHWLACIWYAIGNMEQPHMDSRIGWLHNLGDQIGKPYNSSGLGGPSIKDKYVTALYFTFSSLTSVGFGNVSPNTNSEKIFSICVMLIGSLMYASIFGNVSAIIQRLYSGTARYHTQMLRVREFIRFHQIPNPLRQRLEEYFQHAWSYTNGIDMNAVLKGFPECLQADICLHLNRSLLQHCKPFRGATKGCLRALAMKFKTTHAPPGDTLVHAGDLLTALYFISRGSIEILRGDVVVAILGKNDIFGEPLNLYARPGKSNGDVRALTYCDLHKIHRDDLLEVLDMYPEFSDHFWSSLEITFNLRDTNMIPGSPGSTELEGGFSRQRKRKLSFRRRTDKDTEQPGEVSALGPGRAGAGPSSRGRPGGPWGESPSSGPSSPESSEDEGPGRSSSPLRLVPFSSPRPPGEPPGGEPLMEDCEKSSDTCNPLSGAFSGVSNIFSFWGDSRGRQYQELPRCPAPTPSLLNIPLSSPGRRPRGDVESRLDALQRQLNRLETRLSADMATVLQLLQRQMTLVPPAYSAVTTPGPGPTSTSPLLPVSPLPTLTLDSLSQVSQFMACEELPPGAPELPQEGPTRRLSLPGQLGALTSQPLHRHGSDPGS
assay text: Inhibition of human ERG expressed in CHO-K1 cells by Q-patch clamp assay
Please state the figure in nM; there is no need to write the unit.

> print(dat)
                    structure.smiles.string  readout.number
1  N#Cc1ccc(Cn2c(NC3CCN(CCc4ccc(-c5nc(C(F)(F)F)no5)cc4)CC3)nc3ccccc32)cc1             470
2  Cc1noc(-c2ccc(CCN3CCC(Nc4nc5ccccc5n4Cc4ccc(C(F)(F)F)nc4)CC3)cc2)n1             250
3  Cc1noc(-c2ccc(CCN3CCC(Nc4nc5ccccc5n4C)CC3)cc2)n1             350
4  Cc1noc(-c2ccc(CCN3CCC(Nc4nc5ccccc5n4CC4CCCCC4)CC3)cc2)n1             890
5  Cc1noc(-c2ccc(CCN3CCC(Nc4nc5cc(F)ccc5n4C)CC3)cc2)n1           28700

The record that follows has no IC50 shown yet.
Note to self: IC50 of `COC(=O)c1ccc2c(c1)nc(NC1CCN(CCc3ccc(-c4nc(C)no4)cc3)CC1)n2C` with Voltage-gated inwardly rectifying potassium channel KCNH2 (Homo sapiens) was 490

----------
assay text: physchem
condition description: buffer, pH 7.4
measured metric: solubility kinetic at 2 h (µM)
Please state the figure in µM; there is no need to write the unit.

For `Cc1noc(-c2ccc(CCN3CCC(Nc4nc5cc(C(F)(F)F)ccc5n4C)CC3)cc2)n1` the compound record lists solubility kinetic at 2 h as 40

----------
assay text: Apparent half life in mouse at 3 mg/kg, iv
Assay type: ADME, organism-based
condition description: in vivo, read-out: t1/2(app) (converted)
measured metric: half-life (h)
Please state the figure in h; there is no need to write the unit.

> print(dat)
                    structure.smiles.string  unit.name  readout.number
1  Cc1noc(-c2ccc(CCN3CCC(Nc4nc5ccccc5[nH]4)CC3)cc2)n1          h            11.6

The record that follows has no half-life shown yet.
For `FC(F)(F)c1noc(-c2ccc(CCN3CCC(Nc4nc5ccccc5[nH]4)CC3)cc2)n1` the compound record lists half-life as 4.2

----------
assay text: physchem
condition description: buffer, pH 7.4
Use 80 µM as the dividing line for solubility kinetic at 2 h, with the line itself on the Satisfied side and lower values as Not satisfied.

Answered examples (4):
> print(dat)
                                   compound   answer.label
1  Cn1c(NC2CCN(CCc3ccc(C(=O)NCCO)cc3)CC2)nc2ccccc21      Satisfied
2  COC(=O)c1ccc2c(c1)nc(NC1CCN(CCc3ccc(-c4nc(C)no4)cc3)CC1)n2C      Satisfied
3  Cc1noc(-c2ccc(CCN3CCC(Nc4nc5ccccc5n4CC4CCC(F)(F)CC4)CC3)cc2)n1  Not satisfied
4  Cc1noc(-c2ccc(CCN3CCC(Nc4nc5ccccc5n4C)CC3)cc2)n1      Satisfied

Input: Could you verify whether the entry `Cc1noc(-c2ccc(CCN3CCC(Nc4nc5ccccc5n4Cc4ccc(C(F)(F)F)cc4)CC3)cc2)n1` shows solubility kinetic at 2 h of no less than 80 µM?
Output: Not satisfied

Input: Could you verify whether the entry `Cn1c(NC2CCN(CCc3ccc(-c4nc(C5CC5)no4)cc3)CC2)nc2ccccc21` shows solubility kinetic at 2 h of no less than 80 µM?
Output: Not satisfied

Input: Could you verify whether the entry `Cn1c(NC2CCN(CCc3ccc(C(=O)NC4(CO)CC4)cc3)CC2)nc2ccccc21` shows solubility kinetic at 2 h of no less than 80 µM?
Output: Not satisfied

Input: Could you verify whether the entry `Cn1c(NC2CCN(CCc3ccc(-c4nc(CO)no4)cc3)CC2)nc2ccccc21` shows solubility kinetic at 2 h of no less than 80 µM?
Output: Satisfied

Input: Could you verify whether the entry `C[C@@H]1CN=C(c2ccc(CCN3CCC(Nc4nc5ccccc5n4Cc4ccc(C#N)cc4)CC3)cc2)O1` shows solubility kinetic at 2 h of no less than 80 µM?
Output: Not satisfied

Input: Could you verify whether the entry `Cn1c(NC2CCN(CCc3ccc(C(=O)NCCN)cc3)CC2)nc2ccccc21` shows solubility kinetic at 2 h of no less than 80 µM?
Output: Satisfied

Input: Could you verify whether the entry `Cc1nc(-c2ccc(CCN3CCC(Nc4nc5ccccc5n4Cc4ccc(C#N)cc4)CC3)cc2)no1` shows solubility kinetic at 2 h of no less than 80 µM?
Output: Not satisfied

Input: Could you verify whether the entry `Cc1noc(-c2ccc(CCN3CCC(Nc4nc5ccccc5n4Cc4ccc(C(F)(F)F)nc4)CC3)cc2)n1` shows solubility kinetic at 2 h of no less than 80 µM?
Output: Not satisfied

Input: Could you verify whether the entry `Cc1noc(-c2ccc(CCN3CCC(Nc4nc5ccccc5n4C(C)C)CC3)cc2)n1` shows solubility kinetic at 2 h of no less than 80 µM?
Output: Not satisfied

Input: Could you verify whether the entry `Cc1nnc(-c2ccc(CCN3CCC(Nc4nc5ccccc5n4Cc4ccc(C#N)cc4)CC3)cc2)o1` shows solubility kinetic at 2 h of no less than 80 µM?
Output: Not satisfied

Input: Could you verify whether the entry `Cc1noc(-c2ccc(CCN3CC4(CCN(c5nc6ccccc6n5Cc5ccc(C#N)cc5)C4)C3)cc2)n1` shows solubility kinetic at 2 h of no less than 80 µM?
Output: Not satisfied

Input: Could you verify whether the entry `Cc1noc(-c2ccc(CCN3CCC(Nc4nc5cc(C)c(C)cc5n4C)CC3)cc2)n1` shows solubility kinetic at 2 h of no less than 80 µM?
Output: Not satisfied

Input: Could you verify whether the entry `O=[N+]([O-])c1ccc(NCCn2c(NC3CCN(CCc4ccc(-c5nc(C(F)(F)F)no5)cc4)CC3)nc3ccccc32)c2nonc12` shows solubility kinetic at 2 h of no less than 80 µM?
Output: Satisfied

Input: Could you verify whether the entry `Cc1noc(-c2ccc(CCN3CCC(Nc4nc5cc(C(=O)O)ccc5n4C)CC3)cc2)n1` shows solubility kinetic at 2 h of no less than 80 µM?
Output: Satisfied

Input: Could you verify whether the entry `N#Cc1ccc(Cn2c(NC3CCN(CCc4ccc(-c5noc(C(F)(F)F)n5)cc4)CC3)nc3ccccc32)cc1` shows solubility kinetic at 2 h of no less than 80 µM?
Output: Not satisfied
